pIC50: −log10 of the molar value.
Values of pIC50 reported for PDGFR β tyrosine kinase (Homo sapiens, UniProt P09619) appear below.

compound	pIC50
Cc1cccc(C(=O)Nc2cccc([C@H](C)Nc3cncc(-c4ccc(S(N)(=O)=O)cc4)n3)c2)c1 [Compound 77]	> 6.00
CC(Nc1cncc(-c2ccc(N)cc2)n1)c1cccc(NC(=O)c2cccnc2)c1 (racemic) [Compound 22]	> 6.00
COc1cc(-c2cncc(N[C@@H](C)c3cccc(NC(=O)c4cncc(C)c4)c3)n2)ccc1N [Compound 29]	> 7.00
Cc1cncc(C(=O)Nc2cccc([C@H](C)Nc3cncc(Cl)n3)c2)c1 [Compound 42]	> 6.00
COc1cc(-c2cncc(N[C@@H](C)c3cccc(NC(=O)c4cncc(C)c4)c3)n2)ccc1O [Compound 28]	> 7.00
COc1cc(-c2cncc(N[C@@H](C)c3cccc(NC(=O)c4cccnc4)c3)n2)ccc1O [Compound 3]	> 7.00

Where do the numbers come from? From patent US9029386B2.
